study-target: Human Thrombin (Homo sapiens)
I'd appreciate it if you could supply pKi values for the items below.
Answers are plain numbers, as −log10 of the molar value.

// below: answered compounds
smiles-text	quantity-kind	value
Cc1ncc(CNC(=O)c2ccc(C(=N)N)cc2)c(CO)c1OCc1ccc(C(=N)N)cc1	pKi	6.14
Cc1ncc(CNc2ccc(-c3ccc(C(=N)N)cc3)cc2)c(C)c1OCc1ccc(C(=N)N)cc1	pKi	5.42
Cc1ncc(CNc2ccc(C(=N)N)cc2)c(C)c1OCc1ccc(C(=N)N)cc1	pKi	7.21
Cc1ncc(CNc2ccc(-c3ccc(C(=N)N)cc3)cc2)c(CNCCCCCC(=O)O)c1OCc1ccc(C(=N)N)cc1	pKi	6.07

Memo: Cc1ncc(CNc2ccc(C(=N)N)cc2)cc1OCc1cccc(C(=N)N)c1 , reported pKi: 6.48

Origin of values: patent US7812037B2
